I'd appreciate it if you could supply inhibition in vivo at 29 µmol/kg values for the items below.
- Tested on: Rattus norvegicus
- experiment.notes: Antiinflammatory activity in albino rat assessed as inhibition of carrageenan-induced paw edema at 0.029 mmol/kg, po after 4 hrs relative to control
- Type: functional
Numbers only, in %.

Dear reader, for each entry below, please note its inhibition in vivo at 29 µmol/kg.
1. CCCC/N=c1/c(C#N)c2n(c(=O)n1-c1ccccc1)CCC2
2. CCN1C(=S)N2CCCC2c2c1ncn(C)c2=N (configuration not stated)
3. CCOC(=O)NNc1nc(-c2ccccc2)nc2c1C1CCCN1C(=O)N2c1ccccc1 (configuration not stated)
4. O=C(NNc1nc(-c2ccccc2)nc2c1C1CCCN1C(=O)N2c1ccccc1)c1ccccc1 (configuration not stated)
5. C=CC/N=c1/c(C#N)c2n(c(=O)n1-c1ccccc1)CCC2
6. CC/N=c1/c(C#N)c2n(c(=O)n1-c1ccccc1)CCC2

Resp:
1: 22.4; 2: 9.93; 3: 16.1; 4: 25.5; 5: 14.3; 6: 30.4

Dear reader, for each entry below, please note its inhibition in vivo at 29 µmol/kg.
1. N#CC1=C(NCCN)N(c2ccccc2)C(=O)N2CCCC12 (configuration not stated)
2. CCOC(=O)c1cnn(-c2nc(-c3ccccc3)nc3c2C2CCCN2C(=O)N3c2ccccc2)c1N (configuration not stated)
3. N/N=C(/N)C1=C(N)N(c2ccccc2)C(=O)N2CCCC12 (configuration not stated)

Resp:
[16.9, 11.2, 23]
